- EXPERIMENTAL_PROTOCOL: Plasma clearance in dog at 0.5 mg/kg, iv and 2 mg/kg, po
- Format: ADME, organism-based, Canis lupus familiaris
OBSERVED_PROPERTY: clearance (mL/min/kg)
One number for each entry, in mL/min/kg.

Qu. What value of clearance has been recorded for this entry: CCCCC[C@@H](Cc1ccc(C(=O)NCCC(=O)O)cc1)C(=O)c1cc2cc(Cl)ccc2n1-c1cccc(C(F)(F)F)c1
Ans. 3.8

----------
- TESTED_TARGET: Glucagon-like peptide 1 receptor (Homo sapiens, UniProt P43220)
- Sequence (P43220 whole entry): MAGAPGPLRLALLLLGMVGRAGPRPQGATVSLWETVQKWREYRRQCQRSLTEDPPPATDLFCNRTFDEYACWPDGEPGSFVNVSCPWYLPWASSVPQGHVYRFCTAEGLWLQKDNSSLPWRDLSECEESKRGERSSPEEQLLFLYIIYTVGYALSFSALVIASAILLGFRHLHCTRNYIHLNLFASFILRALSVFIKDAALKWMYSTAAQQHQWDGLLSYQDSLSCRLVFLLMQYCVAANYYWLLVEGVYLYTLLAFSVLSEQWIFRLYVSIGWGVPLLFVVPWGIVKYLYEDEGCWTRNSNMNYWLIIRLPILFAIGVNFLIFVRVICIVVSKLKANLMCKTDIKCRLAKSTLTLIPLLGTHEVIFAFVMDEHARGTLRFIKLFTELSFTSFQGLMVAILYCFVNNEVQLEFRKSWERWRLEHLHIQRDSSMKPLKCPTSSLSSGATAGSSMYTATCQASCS
- EXPERIMENTAL_PROTOCOL: Antagonist activity at human GLP1 receptor assessed as inhibition of cAMP production
OBSERVED_PROPERTY: IC50

Qu. What value of IC50 has been recorded for this entry: CCCCC[C@@H](Cc1ccc(C(=O)NCCC(=O)O)cc1)C(=O)c1cc2cc(Cl)ccc2n1-c1cccc(C(F)(F)F)c1
Ans. > 10 µM
